methodNotes: in vitro
Format: cell-based, human
recordedConditions: human
Each item that follows carries a reported IC50 at 96 h.

Solved cases (2 shown):
>  <compound>
NC(N)=NCCC[C@H](N)C(=O)NCC(=O)N[C@@H](CC(=O)O)C(=O)N[C@@H](CO)C(=O)O [RGDS, reference compound]

>  <IC50 at 96 h>
> 50 µM

$$$$
>  <compound>
COC(=O)CCNC(=O)C1CC(CCCNc2ncccn2)C1 (stereo not drawn)

>  <IC50 at 96 h>
> 100 µM

$$$$

Now for the compound whose IC50 at 96 h we want.
input: Fill blank: measured IC50 at 96 h of the compound CC(C)[C@@H]1NC(=O)[C@@H](Cc2ccccc2)NC(=O)[C@H](CC(=O)O)NC(=O)CNC(=O)[C@H](CCCNC(=N)N)NC1=O [cRGDfV, reference compound] is ____.
output: 42.5 µM
